# measured.on: T1, human LAP-TGFB1 Fc fusion (human)
# T1 construct: also called human LAP-TGFβ1-Fc; human LAP-TGFβ-Fc isoform 1
# test.description: SPR pH 6.0, antigen-Fc captured, Fab analyte
Record form. Attribute: koff. Fill in for each entry.
Numbers only, in s⁻¹.

Below, 3 binders whose answers are already recorded.
67BLH (Fab, V domains shown, also called 19BLM Fab) VH: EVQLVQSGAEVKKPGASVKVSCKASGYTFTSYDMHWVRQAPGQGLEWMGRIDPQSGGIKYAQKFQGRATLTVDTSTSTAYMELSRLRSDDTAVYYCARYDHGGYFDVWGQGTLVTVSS VL: DIQMTQSPSSLSASVGDRVTITCRASQDIYNYLNWYQQKPGKAVKLLIYYTSYLETGVPSRFSGSGSGTDYTLTISSLQPEDFATYFCQQGDTLPWTFGQGTKLEIK	0.0122
20E6 Fab (80BGJ/85BIT) (Fab, V domains shown, also called 20E6 (80BGJ); 20E6 (85BIT)) VH: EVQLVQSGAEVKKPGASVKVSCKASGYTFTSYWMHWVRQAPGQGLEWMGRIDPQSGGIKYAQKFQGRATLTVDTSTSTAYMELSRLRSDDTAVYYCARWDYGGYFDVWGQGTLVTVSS VL: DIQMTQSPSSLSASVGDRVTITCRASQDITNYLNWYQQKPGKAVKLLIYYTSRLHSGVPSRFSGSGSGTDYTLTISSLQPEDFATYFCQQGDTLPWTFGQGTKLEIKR	0.096
59BLH (Fab, V domains shown, also called 11BLM Fab) VH: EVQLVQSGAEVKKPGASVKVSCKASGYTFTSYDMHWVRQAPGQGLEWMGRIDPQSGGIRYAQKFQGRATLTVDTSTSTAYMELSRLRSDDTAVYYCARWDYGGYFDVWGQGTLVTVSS VL: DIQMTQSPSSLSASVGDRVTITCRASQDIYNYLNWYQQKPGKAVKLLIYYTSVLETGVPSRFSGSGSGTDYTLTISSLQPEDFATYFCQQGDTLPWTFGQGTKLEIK	0.000543

Input line: Can you share its koff? I mean this binder: 64BLH (Fab, V domains shown, also called 16BLM Fab) VH: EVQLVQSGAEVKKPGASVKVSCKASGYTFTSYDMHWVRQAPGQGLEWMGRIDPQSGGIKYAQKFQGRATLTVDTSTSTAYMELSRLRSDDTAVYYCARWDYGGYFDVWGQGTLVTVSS VL: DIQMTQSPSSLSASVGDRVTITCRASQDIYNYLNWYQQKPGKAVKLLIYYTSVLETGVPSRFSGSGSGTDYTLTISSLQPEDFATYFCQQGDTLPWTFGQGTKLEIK
Output line: 0.000843
